Cited source for all entries: patent US20090143279A1

Tested on: mtOXPHOS transcripts
Format: cell-based, mouse
condition: composite Z-score vs DMSO; Conc 20 μM
# mitoOX annotations
value_type: mitoOX

- compound: "C[C@H]1C(=O)CC[C@@H]2[C@]1(C)CC[C@H]1[C@@]2(C)CC[C@@]2(C)[C@@H]3CC(C)(C)CC[C@]3(C)CC[C@]12C"
  value_reported: "−0.600"
- compound: "CCN1CCN(C(=O)N[C@@H](C(=O)N[C@@H]2C(=O)N3[C@@H]2SC(C)(C)[C@@H]3C(=O)O)c2ccccc2)C(=O)C1=O"
  value_reported: "−0.857"
- compound: "CC(=O)c1cc(CC=C(C)C)c(O)c(CC=C(C)C)c1 [3,5-diprenyl-4-hydroxyacetophenone]"
  value_reported: 0.538
- compound: "N=C(N)N.N=C(N)N.O=C(O)O [guanidine carbonate]"
  value_reported: "−0.993"
